Origin of the recorded values: PubChem BioAssay (NCI)

- Tested on: K-562 leukemia
- test summary: NCI-60 one-dose screen, 48 h
- applied conditions: 10 µM unless noted
This is part of a sample that, as a whole, favours compounds with a hit. Of some 83,000 tested, about 20% had one in any assay. Active and inactive are the calls of the source. Rule for the calls: active = growth percent below 10; inactive = the rest.
Please reply with one of these outcomes: yes (1) (active), no (0) (inactive)

Observe how each entry below is paired with its result.
> print(dat)
                                   molecule  answer.label
1  Nc1ccc(-c2nc3ccc4[nH]ncc4c3c3c2CCCC3)cc1F        no (0)
2  O=C(Nc1ccccc1C(=O)N/N=C(\c1ccccc1)c1ccccn1)c1ccccc1        no (0)
3   CCOC(=O)c1cnn(-c2ccc(S(N)(=O)=O)cc2)c1N        no (0)

Status in this test for COc1ccc(C2Nc3nc(SC)nc(N)c3N=C3c4ccccc4CCC32)cc1 (stereo not given) ?
no (0)

Test call for this molecule, please: O=C(N=Nc1c(O)[nH]c2ccccc12)Nc1ccc(Br)cc1
no (0)

Hi team, can someone confirm the assay call for CCOC(=O)C(=CCC(C)C)C(=O)OCC ?
no (0)
